system: S. aureus DSM 20231; assay: fitness (endpoint OD595 vs no drug) (fraction); higher = more growth; settings: first compound 0.5 µg/mL; partner 1.25 µg/mL
measureName: fitness
Numbers only.

In: // query fitness value for entry CO/N=C(\C(=O)N[C@@H]1C(=O)N2C(C(=O)[O-])=C(C[N+]3(C)CCCC3)CS[C@H]12)c1csc(N)n1 [Cefepime] + CN1C2=CC=CC=C2N=C3C1=CC=CC3=O [Pyocyanin]
Out: 0.786

###

tested on: S. aureus DSM 20231; assay: Bliss interaction score (quartile over a dose matrix) (fitness difference); higher = more antagonism (negative = synergy)
measureName: Bliss interaction score
One number for each entry.

CN(C)C(=O)C(CCN1CCC(O)(c2ccc(Cl)cc2)CC1)(c1ccccc1)c1ccccc1 [Loperamide] + Clc1ccc(COC(Cn2ccnc2)c2ccc(Cl)cc2Cl)c(Cl)c1 [Miconazole] | 0.0862
CO/N=C(\C(=O)N[C@@H]1C(=O)N2C(C(=O)[O-])=C(C[N+]3(C)CCCC3)CS[C@H]12)c1csc(N)n1 [Cefepime] + CCN(CC)CCOC(=O)c1ccc(N)cc1 [Procaine] | -0.0573
CC1(C)S[C@@H]2[C@H](NC(=O)[C@H](N)c3ccc(O)cc3)C(=O)N2[C@H]1C(=O)O [Amoxicillin] + Oc1cc(Cl)ccc1Oc1ccc(Cl)cc1Cl [Triclosan] | 0.028

Fill in Bliss interaction score for each of the 2 molecules listed.
1. CO/N=C(\C(=O)N[C@@H]1C(=O)N2C(C(=O)[O-])=C(C[N+]3(C)CCCC3)CS[C@H]12)c1csc(N)n1 [Cefepime] + COc1c(N2C[C@@H]3CCCN[C@@H]3C2)c(F)cc2c(=O)c(C(=O)O)cn(C3CC3)c12 [Moxifloxacin]
2. C[C@H]1COc2c(N3CCN(C)CC3)c(F)cc3c(=O)c(C(=O)O)cn1c23 [Levofloxacin] + CC1(C)S[C@@H]2[C@H](NC(=O)Cc3ccccc3)C(=O)N2[C@H]1C(=O)O [PenicillinG]

Out:
1: -0.101; 2: 0.0432

Fill in Bliss interaction score for each of the 5 molecules listed.
1. C[C@H]1COc2c(N3CCN(C)CC3)c(F)cc3c(=O)c(C(=O)O)cn1c23 [Levofloxacin] + Clc1ccc(COC(Cn2ccnc2)c2ccc(Cl)cc2Cl)c(Cl)c1 [Miconazole]
2. CCN(CC)C(=O)/C(C#N)=C/c1cc(O)c(O)c([N+](=O)[O-])c1 [Entacapone] + CC(=O)NC[C@H]1CN(c2ccc(N3CCOCC3)c(F)c2)C(=O)O1
3. C[C@H]1COc2c(N3CCN(C)CC3)c(F)cc3c(=O)c(C(=O)O)cn1c23 [Levofloxacin] + Cc1c(Cl)cccc1Nc1ccccc1C(=O)O [Tolfenamic]
4. CN(C)C(=O)C(CCN1CCC(O)(c2ccc(Cl)cc2)CC1)(c1ccccc1)c1ccccc1 [Loperamide] + Oc1cc(Cl)ccc1Oc1ccc(Cl)cc1Cl [Triclosan]
5. CCN(CC)CCOC(=O)c1ccc(N)cc1 [Procaine] + C/C(=C\C(=O)OCCCCCCCCC(=O)O)C[C@@H]1OC[C@H](C[C@@H]2O[C@H]2[C@@H](C)[C@H](C)O)[C@@H](O)[C@H]1O [Pseudomonic acid]

Out:
1: -0.0265; 2: -0.178; 3: -0.164; 4: -0.0746; 5: 0.0122
